- Target System: Casein kinase I isoform epsilon (Homo sapiens)
- Sequence (P49674 whole entry, canonical isoform): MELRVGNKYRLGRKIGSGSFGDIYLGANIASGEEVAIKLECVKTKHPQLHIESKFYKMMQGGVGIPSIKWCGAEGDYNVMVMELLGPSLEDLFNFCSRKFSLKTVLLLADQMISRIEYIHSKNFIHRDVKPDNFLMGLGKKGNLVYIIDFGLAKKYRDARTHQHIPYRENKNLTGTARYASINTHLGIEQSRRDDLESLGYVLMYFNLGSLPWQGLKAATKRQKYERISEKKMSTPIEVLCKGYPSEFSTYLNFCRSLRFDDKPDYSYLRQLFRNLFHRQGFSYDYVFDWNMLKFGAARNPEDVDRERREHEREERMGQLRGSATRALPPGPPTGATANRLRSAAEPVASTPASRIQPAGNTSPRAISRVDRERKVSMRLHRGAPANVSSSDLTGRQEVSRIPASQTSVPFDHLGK
- Assay Procedure: Inhibition of CK1e (unknown origin) expressed in HEK293T cells using NanoGlo as substrate incubated for 20 hrs by NanoBRET assay
Readout Type: pEC50
pEC50 here: minus log base 10 of the concentration, concentration in moles per litre.

Asked: Look at this molecule and give its reported pEC50. Cc1cccc(-c2ccc(-c3cc4cnc(NC(CO)CO)nc4n(CCCCN)c3=O)c(Cl)c2)n1
Given back: 4.75

---

- Target System: Serine/threonine-protein kinase PAK 1 (Homo sapiens) (UniProt Q13153)
- Sequence (Q13153 whole entry): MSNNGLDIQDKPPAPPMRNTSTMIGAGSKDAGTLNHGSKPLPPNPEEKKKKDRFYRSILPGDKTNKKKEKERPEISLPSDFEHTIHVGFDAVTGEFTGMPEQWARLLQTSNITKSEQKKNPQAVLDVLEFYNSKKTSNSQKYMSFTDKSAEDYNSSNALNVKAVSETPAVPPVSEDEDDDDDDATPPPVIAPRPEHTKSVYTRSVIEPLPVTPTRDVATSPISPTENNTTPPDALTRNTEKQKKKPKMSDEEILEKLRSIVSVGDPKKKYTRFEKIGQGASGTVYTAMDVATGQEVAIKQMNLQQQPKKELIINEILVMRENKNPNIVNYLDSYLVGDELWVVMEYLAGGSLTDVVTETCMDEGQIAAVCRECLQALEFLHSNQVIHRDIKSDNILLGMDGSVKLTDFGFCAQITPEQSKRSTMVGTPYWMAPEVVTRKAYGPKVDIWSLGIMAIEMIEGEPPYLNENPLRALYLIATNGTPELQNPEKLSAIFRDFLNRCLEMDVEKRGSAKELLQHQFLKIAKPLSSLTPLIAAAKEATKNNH
- Assay Procedure: Binding affinity to recombinant PAK1 (unknown origin) assessed as change in melting temperature by DSF analysis
One threshold, 6 °C, splits the recorded ΔTm values: lower ones are true (1), equal or higher ones are false (0).

Worked examples follow.
Cc1cccc(-c2ccc(-c3cc4cnc(Nc5ccc(F)c(CO)c5)nc4n(CCCCN)c3=O)c(Cl)c2)n1 ... false (0)
CNc1ncc2cc(-c3ccc(-c4cccc(C)n4)cc3Cl)c(=O)n(CCN)c2n1 ... true (1)
COc1cc(N2CCOCC2)ccc1Nc1ncc2cc(-c3ccc(-c4cccc(C)n4)cc3Cl)c(=O)n(CCCCN)c2n1 ... true (1)

Asked: Please state whether ΔTm is below 6 °C for CNc1ncc2cc(-c3ccc(-c4cccc(C)n4)cc3Cl)c(=O)n(CCCOC)c2n1
Given back: true (1)

Asked: For Cc1cccc(-c2ccc(-c3cc4cnc(NCCCN5CCNCC5)nc4n(CCCCN)c3=O)c(Cl)c2)n1 then?
Given back: true (1)

Asked: Try Cc1cccc(-c2ccc(-c3cc4cnc(Nc5ccc(O)cc5)nc4n(CCCCN)c3=O)c(Cl)c2)n1 next.
Given back: false (0)

Asked: Same question, CNc1ncc2cc(-c3ccc(-c4cccc(C)n4)cc3Cl)c(=O)[nH]c2n1 this time
Given back: true (1)

Asked: Further, for CNc1ncc2cc(-c3ccc(-c4cccc(C)n4)cc3Cl)c(=O)n(CCC3CCNCC3)c2n1 ?
Given back: false (0)
